Target: T1, monomeric human CTLA-4 (human, UniProt P16410 36-161, limits assumed)
T1 construct: Soluble monomeric analyte in SPR; also called huCTLA-4
T1 sequence: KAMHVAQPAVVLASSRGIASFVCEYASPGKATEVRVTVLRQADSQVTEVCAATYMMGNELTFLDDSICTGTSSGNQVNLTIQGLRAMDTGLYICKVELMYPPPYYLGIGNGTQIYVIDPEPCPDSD
Assay: SPR, captured Fab, pH 6.0
Measured Kd values are reported for all entries that follow.
All answers are understood in nM, so give the number only.

Worked examples, 3 binders total:
| binder | Kd, nM |
| --- | --- |
| ipi.93 Fab (Fab, V domains shown, Tested as monovalent Fab) VH: QVQLVESGGGVVQPGRSLRLSCAASGFTFSSYTMHWVRQAPGKGLEWVTFISYDGNNKYYADSVKGRFTISRDNSKNTLYLQMNSLRAEDTAIYYCARTGWLGPFDYWGQGTLVTVSS VL: EIVLTQSPGTLSLSPGERATLSCRASQEVGDSELAWYQQKPGQAPRLLIYGAFSRATGIPDRFSGSGSGTDFTLTISRLEPEDFAVYYCQQYGSSPWTFGQGTKVEIKR | 13 |
| ipi.105 Fab (Fab, V domains shown, Tested as monovalent Fab) VH: QVQLVESGGGVVQPGRSLRLSCAASGFTFSHYTMHWVRQAPGKGLEWVTFISYDGHNKYYADSVKGRFTISRDNSKNTLYLQMNSLRAEDTAIYYCARTGWLGPFDYWGQGTLVTVSS VL: EIVLTQSPGTLSLSPGERATLSCRASQEVGESELAWYQQKPGQAPRLLIYGAFSRATGIPDRFSGSGSGTDFTLTISRLEPEDFAVYYCQQYGSSPWTFGQGTKVEIKR | 2.5 |
| ipi.95 Fab (Fab, V domains shown, Tested as monovalent Fab) VH: QVQLVESGGGVVQPGRSLRLSCAASGFTFSHYTMHWVRQAPGKGLEWVTFISYDGHNKYYADSVKGRFTISRDNSKNTLYLQMNSLRAEDTAIYYCARTGWLGPFDYWGQGTLVTVSS VL: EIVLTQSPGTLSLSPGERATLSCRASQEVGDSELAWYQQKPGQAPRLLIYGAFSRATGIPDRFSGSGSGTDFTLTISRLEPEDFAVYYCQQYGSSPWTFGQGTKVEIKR | 2.8 |

Okay, now this binder:
query: # query: Kd of entry ipi.106 Fab (Fab, V domains shown, Tested as monovalent Fab) VH: QVQLVESGGGVVQPGRSLRLSCAASGFTFSHYTMHWVRQAPGKGLEWVTFISYDGHNKYYADSVKGRFTISRDNSKNTLYLQMNSLRAEDTAIYYCARHGWLGPFDYWGQGTLVTVSS VL: EIVLTQSPGTLSLSPGERATLSCRASQEVGESELAWYQQKPGQAPRLLIYGAFSRATGIPDRFSGSGSGTDFTLTISRLEPEDFAVYYCQQYGSSPWTFGQGTKVEIKR
result: 18
